# tgt: Protease (Human immunodeficiency virus 1) (UniProt Q9YQ12)
# Sequence (Q9YQ12 as listed by the source): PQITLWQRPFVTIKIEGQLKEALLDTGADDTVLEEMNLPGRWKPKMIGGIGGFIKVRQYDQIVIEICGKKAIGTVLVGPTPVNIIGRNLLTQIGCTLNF
# assay.summary: Inhibition of HIV1 recombinant protease at 50 nM
parameter: inhibition (%)
# number only, unit % dropped from output

| cpd.smiles | inhibition, % |
| --- | --- |
| CC(C)(C)CNC(=O)[C@H]1N(C(=O)[C@@H](O)[C@H](Cc2ccccc2)NC(=O)[C@@H](NC(=O)[C@@H](NC(=O)C(C)(CO)CO)c2ccccc2)C(C)(C)C)CSC1(C)C | 86 |

[Q] What value of measured inhibition is listed for CC(C)(C)CNC(=O)[C@H]1N(C(=O)[C@@H](O)[C@H](Cc2ccccc2)NC(=O)[C@@H](NC(=O)[C@@H](NC(=O)CCN)c2ccccc2)C(C)(C)C)CSC1(C)C ?
[A] 99

* * *

# Test system: Protease (Human T-cell leukemia virus type I), Q82134 [L40I]
# Sequence (Q82134 entry or part of it L40I): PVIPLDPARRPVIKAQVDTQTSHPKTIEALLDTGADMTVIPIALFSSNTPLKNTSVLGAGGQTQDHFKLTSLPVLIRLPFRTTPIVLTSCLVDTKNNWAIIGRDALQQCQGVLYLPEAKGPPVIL
# assay.summary: Inhibition of HTLV-1 recombinant protease L40I mutant at 50 nM
Numbered stars: 1 amine (or outer) side, 2 acyl side, 3 side chain; on linkers, the order of the positions; unused ones are H or OH. Square brackets hold non-standard residues; d marks the D form. Peptide text beside a SMILES is read from it. * marks the point of attachment. X1 = O=C([C@@H](O)[C@H](Cc1ccccc1)N[*:1])[*:2]; Thz(5,5-Me2) = CC1(C)SCN[C@@H]1C(=O)O; Phg = N[C@H](C(=O)O)c1ccccc1; Tle = CC(C)(C)[C@H](N)C(=O)O; Dap = NC[C@H](N)C(=O)O; NHCH2tBu = CC(C)(C)CN*
parameter: inhibition (%)
# number only, unit % dropped from output

Answered cases to consult:
| molecule | tgt | inhibition [%] |
| --- | --- | --- |
| CC(C)(C)CNC(=O)[C@H]1N(C(=O)[C@@H](O)[C@H](Cc2ccccc2)NC(=O)[C@@H](NC(=O)[C@@H](NC(=O)CCN)c2ccccc2)C(C)(C)C)CSC1(C)C | Protease (Human T-cell leukemia virus type I), Q82134 [L40I] | 90 |
| CCN(CC)[C@H](C(=O)N[C@H](C(=O)N[C@@H](Cc1ccccc1)[C@H](O)C(=O)N1CSC(C)(C)[C@H]1C(=O)NCC(C)(C)C)C(C)(C)C)c1ccccc1 | Protease (Human T-cell leukemia virus type I), Q82134 [L40I] | 39 |
| CC(C)(C)CNC(=O)[C@H]1N(C(=O)[C@@H](O)[C@H](Cc2ccccc2)NC(=O)[C@@H](NC(=O)[C@@H](NC(=O)C(C)(CO)CO)c2ccccc2)C(C)(C)C)CSC1(C)C | Protease (Human T-cell leukemia virus type I), Q82134 [L40I] | 18 |
| CC(C)(C)CNC(=O)[C@H]1N(C(=O)[C@@H](O)[C@H](Cc2ccccc2)NC(=O)[C@@H](NC(=O)[C@@H](N)c2ccccc2)C(C)(C)C)CSC1(C)C | Protease (Human T-cell leukemia virus type I), Q82134 [L40I] | 38 |
| CC(C)(C)CNC(=O)[C@H]1N(C(=O)[C@@H](O)[C@H](Cc2ccccc2)NC(=O)[C@@H](NC(=O)[C@@H](NC(=O)[C@@H](N)CN)c2ccccc2)C(C)(C)C)CSC1(C)C (H-[Dap][Phg][Tle][X1][Thz(5,5-Me2)]-NHCH2tBu) | Protease (Human T-cell leukemia virus type I), Q82134 [L40I] | 8 |
| CN(C)[C@H](C(=O)N[C@H](C(=O)N[C@@H](Cc1ccccc1)[C@H](O)C(=O)N1CSC(C)(C)[C@H]1C(=O)NCC(C)(C)C)C(C)(C)C)c1ccccc1 | Protease (Human T-cell leukemia virus type I), Q82134 [L40I] | 38 |
| CCN[C@H](C(=O)N[C@H](C(=O)N[C@@H](Cc1ccccc1)[C@H](O)C(=O)N1CSC(C)(C)[C@H]1C(=O)NCC(C)(C)C)C(C)(C)C)c1ccccc1 | Protease (Human T-cell leukemia virus type I), Q82134 [L40I] | 38 |
| CC(C)(C)CNC(=O)[C@H]1N(C(=O)[C@@H](O)[C@H](Cc2ccccc2)NC(=O)[C@@H](NC(=O)[C@@H](NCc2ccccc2)c2ccccc2)C(C)(C)C)CSC1(C)C | Protease (Human T-cell leukemia virus type I), Q82134 [L40I] | 44 |

[Q] What value of measured inhibition is listed for CN[C@H](C(=O)N[C@H](C(=O)N[C@@H](Cc1ccccc1)[C@H](O)C(=O)N1CSC(C)(C)[C@H]1C(=O)NCC(C)(C)C)C(C)(C)C)c1ccccc1 ?
[A] 38
